koff for assorted binders
Target: T1, hu-CD74 antigen (R&D SYSTEMS catalog #3590-CD-050) (human, UniProt P04233-2 73-232, limits assumed)
T1 construct: Bought antigen; also called rhCD74; human CD74
T1 sequence (looked up): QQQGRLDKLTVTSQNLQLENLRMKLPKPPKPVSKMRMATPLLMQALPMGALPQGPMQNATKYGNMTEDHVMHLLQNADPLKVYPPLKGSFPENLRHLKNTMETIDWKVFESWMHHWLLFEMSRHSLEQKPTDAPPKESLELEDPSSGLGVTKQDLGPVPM
Experiment: SPR (Biacore T200), captured on anti-human Fc, rhCD74 analyte
Expressed in s⁻¹, but write only the number.

1251-G02 heavy chain paired with VL SEQ ID NO: 272 (antibody, V domains shown) VH: QVQLVESGGGVVQPGRSLRLSCAASGFTFSSYGMHWVRQAPDKGLEWVAVIWHDGSKDYYADSVKGRFTISRDNSKNTLYLQMNSLRAEDTAVYYCARGGQLDHGAIYGLDVWGQGTTVTVSS VL: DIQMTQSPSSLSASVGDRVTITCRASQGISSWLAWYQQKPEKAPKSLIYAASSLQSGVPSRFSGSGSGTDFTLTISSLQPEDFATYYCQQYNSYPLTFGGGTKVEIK	0.00084

Looking up 1275-G02 light chain paired with HC 1251-F07 (SEQ ID NO: 311) (antibody, human IgG1, V domains shown) VH: QVQLVESGGGVVQPGRSLRLSCAASGFTFSSHGMHWVRQAPDKGLEWVAVIWDDGSNEVYADSVKGRFTISRDNSKNTLYLQMNSLRAEDTAVYYCARGGTRIRGLRYGTDVWGQGTTVTVSS VL: DIQMTQSPSSLSASVGDRVTITCRASQGLGSFLAWYQQKPEKAPKSLIYLGNLLQIGVPSRFSGSGSGTDFTLTISSLQPEDFATYYCQQYNAYPLTFGGGTKVEIK , I see its koff listed as 0.000297
